# reported first-order primary biodegradation rate constant k; entries follow
Protocol Description: first-order primary biodegradation rate constant k (sorption-corrected, fDis-corrected) (d-1); higher = faster biodegradation
Assay Context: river segment: Switzerland (CH) R_Contam; incubation temperature 17 °C
Where a name gives a salt, the structure may show the parent alone.
Simply state the number, no unit and no words.

The following compounds have reported results that may help.
c1ccc2[nH]nnc2c1 [Benzotriazole]: 0.00612
CC(C)NCC(O)COc1ccc(CC(N)=O)cc1 (stereo unspecified) [Atenolol]: 0.395
NS(=O)(=O)c1cc(C(=O)O)c(NCc2ccco2)cc1Cl [Furosemide]: 0.336
NC(=O)c1cn(Cc2c(F)cccc2F)nn1 [Rufinamide]: 0.57
COCC(C)N(C(=O)CCl)c1c(C)csc1C (stereo unspecified) [Dimethenamid]: 0.0163
CC(C)(Oc1ccc(Cl)cc1)C(=O)O [Clofibric acid]: 0.0581
CC1(C(=O)Nc2ccc(O)c(Cl)c2Cl)CCCCC1 [Fenhexamid]: 0.0432
CC(=O)NC[C@H]1CN(c2ccc(N3CCOCC3)c(F)c2)C(=O)O1 [Linezolid]: 0.0142

[ask] Which first-order primary biodegradation rate constant k reading was recorded for the compound COc1ccc2cc([C@H](C)C(=O)O)ccc2c1 [Naproxen] ?
[reply] 0.141

[ask] Which first-order primary biodegradation rate constant k reading was recorded for the compound Cc1ccc2n[nH]nc2c1 [5-Methylbenzotriazole] ?
[reply] 0.134

[ask] Which first-order primary biodegradation rate constant k reading was recorded for the compound CCOC(=O)C1CC(=O)C(=C(O)C2CC2)C(=O)C1 (stereo unspecified) [Trinexapac-ethyl] ?
[reply] 0.149

[ask] Which first-order primary biodegradation rate constant k reading was recorded for the compound CC(C)NCC(O)COc1cccc2ccccc12 (stereo unspecified) [Propranolol] ?
[reply] 0.251

[ask] Which first-order primary biodegradation rate constant k reading was recorded for the compound Cc1ccc(S(=O)(=O)O)cc1 [p-Toluenesulfonic acid] ?
[reply] 0.292

[ask] Which first-order primary biodegradation rate constant k reading was recorded for the compound COCCc1ccc(OCC(O)CNC(C)C)cc1 (stereo unspecified) [Metoprolol] ?
[reply] 0.263

[ask] Which first-order primary biodegradation rate constant k reading was recorded for the compound CC(C)(Oc1ccc(CCNC(=O)c2ccc(Cl)cc2)cc1)C(=O)O [Bezafibrate] ?
[reply] 0.411

[ask] Which first-order primary biodegradation rate constant k reading was recorded for the compound O=S(=O)(O)NC1CCCCC1 [Cyclamate] ?
[reply] 0.379

[ask] Which first-order primary biodegradation rate constant k reading was recorded for the compound c1ccc([C@H]2CN3CCSC3=N2)cc1 [Levamisole] ?
[reply] 0.0447

[ask] Which first-order primary biodegradation rate constant k reading was recorded for the compound CN(Cc1cnc2nc(N)nc(N)c2n1)c1ccc(C(=O)N[C@@H](CCC(=O)O)C(=O)O)cc1 [Methotrexate] ?
[reply] 18

[ask] Which first-order primary biodegradation rate constant k reading was recorded for the compound CC1(C)C[C@@H]1C(=O)N/C(=C\CCCCSC[C@H](N)C(=O)O)C(=O)O [Cilastatin] ?
[reply] 7.32

[ask] Which first-order primary biodegradation rate constant k reading was recorded for the compound CC(C)NCC(O)COc1ccc(COCCOC(C)C)cc1 (stereo unspecified) [Bisoprolol] ?
[reply] 0.309

[ask] Which first-order primary biodegradation rate constant k reading was recorded for the compound CCOC(=O)CC(O)(CC(=O)OCC)C(=O)OCC [Triethyl citrate] ?
[reply] 0.0597

###

Protocol Description: first-order primary biodegradation rate constant k (sorption-corrected, fDis-corrected) (d-1); higher = faster biodegradation
Assay Context: river segment: Switzerland (CH) C_Contam; incubation temperature 17 °C
Use 0.3 as the dividing line for first-order primary biodegradation rate constant k, with the line itself on the true side and lower values as false.

# example entries with known answers
CCCCc1nc(Cl)c(CO)n1Cc1ccc(-c2ccccc2-c2nnn[nH]2)cc1: false
CNCCC(Oc1ccc(C(F)(F)F)cc1)c1ccccc1 (stereo not given): false
Cc1cccc(Nc2ccccc2C(=O)O)c1C: false
C#CCN(C)Cc1ccccc1: false
COc1c(Cl)ccc(Cl)c1C(=O)O: false

[ask] Decide: is the reported value of first-order primary biodegradation rate constant k for Nc1nc(NC2CC2)c2ncn([C@H]3C=C[C@@H](CO)C3)c2n1 equal to or greater than 0.3?
[reply] true

[ask] Decide: is the reported value of first-order primary biodegradation rate constant k for CC(C)NCC(O)COc1ccc(COCCOC(C)C)cc1 (stereo not given) equal to or greater than 0.3?
[reply] true

[ask] Decide: is the reported value of first-order primary biodegradation rate constant k for CC1(C)C[C@@H]1C(=O)N/C(=C\CCCCSC[C@H](N)C(=O)O)C(=O)O equal to or greater than 0.3?
[reply] true

[ask] Decide: is the reported value of first-order primary biodegradation rate constant k for CC(C(=O)O)c1cccc(C(=O)c2ccccc2)c1 (stereo not given) equal to or greater than 0.3?
[reply] true

[ask] Decide: is the reported value of first-order primary biodegradation rate constant k for CC(C)NCC(O)COc1cccc2ccccc12 (stereo not given) equal to or greater than 0.3?
[reply] false

###

Protocol Description: first-order primary biodegradation rate constant k (sorption-corrected, fDis-corrected) (d-1); higher = faster biodegradation
Assay Context: river segment: Spain (ES) C_Contam; incubation temperature 24 °C
Property Name: first-order primary biodegradation rate constant k
Simply state the number, no unit and no words.

The following compounds have reported results that may help.
CCCCCCCCCCN: 43.8
O=C(O)Cc1ccccc1Nc1c(Cl)cccc1Cl: 0.074
c1ccc2[nH]nnc2c1: 0.00219
c1ccc([C@H]2CN3CCSC3=N2)cc1: 0.0263
O=[N+]([O-])c1ccc(Cc2ccncc2)cc1: 0.301

[ask] Which first-order primary biodegradation rate constant k reading was recorded for the compound Cc1cc(Cl)ccc1OC(C)C(=O)O (stereo unspecified) ?
[reply] 0.159

[ask] Which first-order primary biodegradation rate constant k reading was recorded for the compound Cc1cc(O)cc(C)c1Cl ?
[reply] 2.41

[ask] Which first-order primary biodegradation rate constant k reading was recorded for the compound Cc1ccc2n[nH]nc2c1 ?
[reply] 0.102

[ask] Which first-order primary biodegradation rate constant k reading was recorded for the compound CC(=O)Nc1ccc(O)cc1 ?
[reply] 1.28

[ask] Which first-order primary biodegradation rate constant k reading was recorded for the compound CC(C)NCC(O)COc1ccc(COCCOC(C)C)cc1 (stereo unspecified) ?
[reply] 0.414

[ask] Which first-order primary biodegradation rate constant k reading was recorded for the compound CCNc1nc(Cl)nc(NC(C)C)n1 ?
[reply] 0.0247

###

Protocol Description: first-order primary biodegradation rate constant k (sorption-corrected, fDis-corrected) (d-1); higher = faster biodegradation
Assay Context: river segment: Greece (EL) G_Pris; incubation temperature 19 °C
# reported first-order primary biodegradation rate constant k; entries follow
Simply state the number, no unit and no words.

The following compounds have reported results that may help.
COc1ccc(NS(=O)(=O)c2ccc(N)cc2)nn1 [Sulfamethoxypyridazine]: 0.441
Nc1nnc(-c2cccc(Cl)c2Cl)c(N)n1 [Lamotrigine]: 0.0465
CC(C)NCC(O)c1ccc(NS(C)(=O)=O)cc1 (stereo unspecified) [Sotalol]: 0.0804
Cc1ccc2n[nH]nc2c1 [5-Methylbenzotriazole]: 0.771
COc1cccc(C2(O)CCCCC2CN(C)C)c1 (stereo unspecified) [Tramadol]: 0.0141

[ask] Which first-order primary biodegradation rate constant k reading was recorded for the compound COc1ccc(NC(=O)N(C)C)cc1Cl [Metoxuron] ?
[reply] 0.333

###

# reported first-order primary biodegradation rate constant k; entries follow
Protocol Description: first-order primary biodegradation rate constant k (sorption-corrected, fDis-corrected) (d-1); higher = faster biodegradation
Assay Context: river segment: Greece (EL) G_Contam; incubation temperature 19 °C
Simply state the number, no unit and no words.

The following compounds have reported results that may help.
Nc1nc(NC2CC2)c2ncn([C@H]3C=C[C@@H](CO)C3)c2n1: 1.43
COc1cc(NS(=O)(=O)c2ccc(N)cc2)nc(OC)n1: 0.0668
Cn1c(=O)c2c(ncn2C)n(C)c1=O: 0.085

Kindly review the next compound as well.
[ask] Which first-order primary biodegradation rate constant k reading was recorded for the compound COC(=O)c1ccc(O)cc1 ?
[reply] 0.0602

###

# reported first-order primary biodegradation rate constant k; entries follow
Protocol Description: first-order primary biodegradation rate constant k (sorption-corrected, fDis-corrected) (d-1); higher = faster biodegradation
Assay Context: river segment: Spain (ES) C_Contam; incubation temperature 24 °C
Simply state the number, no unit and no words.

The following molecules have reported results that may help.
CCOC(=O)c1ccc(O)cc1 [Ethylparaben]: 2.12
C#CCN(C)Cc1ccccc1 [Pargyline]: 0.113
CCc1cccc(C)c1N(C(=O)CCl)C(C)COC (stereo not given) [Metolachlor]: 0.0203

[ask] Which first-order primary biodegradation rate constant k reading was recorded for the molecule Cc1ccc(C(C)NC(=O)[C@@H](NC(=O)OC(C)C)C(C)C)cc1 (stereo not given in full) [Iprovalicarb] ?
[reply] 0.115

[ask] Which first-order primary biodegradation rate constant k reading was recorded for the molecule CN(C)CCN1C(=O)c2ccccc2N(C)c2ccccc21 [Dibenzepin] ?
[reply] 0.0361

[ask] Which first-order primary biodegradation rate constant k reading was recorded for the molecule CC1=CC(=O)NS(=O)(=O)O1 [Acesulfame] ?
[reply] 0.157

[ask] Which first-order primary biodegradation rate constant k reading was recorded for the molecule COc1cccc(C2(O)CCCCC2CN(C)C)c1 (stereo not given) [Tramadol] ?
[reply] 0.00694

[ask] Which first-order primary biodegradation rate constant k reading was recorded for the molecule CCCOC(=O)c1ccc(O)cc1 [Propylparaben] ?
[reply] 2.24

[ask] Which first-order primary biodegradation rate constant k reading was recorded for the molecule CC[C@@H](C(N)=O)N1CCCC1=O [Levetiracetam] ?
[reply] 0.236

[ask] Which first-order primary biodegradation rate constant k reading was recorded for the molecule COC(=O)c1ccc(O)cc1 [Methylparaben] ?
[reply] 0.151

Ref: the supplement of paper PMC11562712
